ASSAYED SYSTEM: Cytochrome P450 2C9 (Homo sapiens) (UniProt P11712)
Sequence (P11712 whole entry, looked up): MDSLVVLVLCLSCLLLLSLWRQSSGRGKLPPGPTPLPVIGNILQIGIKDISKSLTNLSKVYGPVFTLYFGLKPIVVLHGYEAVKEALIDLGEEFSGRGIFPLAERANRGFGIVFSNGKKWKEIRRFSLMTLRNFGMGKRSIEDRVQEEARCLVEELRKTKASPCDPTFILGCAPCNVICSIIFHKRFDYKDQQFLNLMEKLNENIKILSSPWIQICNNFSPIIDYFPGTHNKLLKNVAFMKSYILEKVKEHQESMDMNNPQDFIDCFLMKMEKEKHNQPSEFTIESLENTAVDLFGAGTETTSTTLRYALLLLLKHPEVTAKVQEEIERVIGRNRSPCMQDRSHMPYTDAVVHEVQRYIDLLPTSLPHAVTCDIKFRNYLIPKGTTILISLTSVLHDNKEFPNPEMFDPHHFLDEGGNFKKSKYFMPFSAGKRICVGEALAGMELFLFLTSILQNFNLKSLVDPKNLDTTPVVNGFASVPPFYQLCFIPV
PROTOCOL SUMMARY: Cytochrome panel assay with activity outcomes
CONDITION NOTES: recombinant CYP, pro-luciferin dealkylation, luminescence, p450-cyp2c9; series mostly up to 57.1 µM
The whole screen tested about 16,000 compounds, of which about 4,000 (25%) were called active. About 26% were inconclusive and are not listed. These entries were drawn from the full list.
METRIC NAME: AC50

| COMPOUND | RESULT |
| --- | --- |
| O=C(c1ccco1)N1CCC[C@@]2(CCN(Cc3ccccc3)C2)C1 | inactive |
| O=S(=O)(c1ccccc1)N1CCC2(CCCN(c3ccccn3)C2)CC1 | 1 µM (active) |
| CNC(=O)[C@H](C)[C@H]1C[C@]1(C)[C@H](NC(=O)OCc1ccccc1)c1ccccc1 | 10 µM (active) |
| C[C@@H](C(=O)NCc1nc2ccccc2[nH]1)[C@@H]1C[C@@]1(C)[C@@H](NC(=O)OCc1ccccc1)c1ccccc1 | 10 µM (active) |
| CC(C)CN1CC[C@@]2(CCCN(S(=O)(=O)c3ccccc3)C2)C1 | inactive |

Kindly give each listed record's AC50.
1. CC(C)NC(=O)N1CC[C@@]2(CCCN(C(=O)c3csnn3)C2)C1
2. Cc1ccccc1[C@@H](OCCN(C)C)c1ccccc1
3. COc1ccccc1NC(=O)[C@H](COCc1ccccc1)NC(=O)OC(C)(C)C
4. CS(=O)(=O)N1CCC[C@@]2(CCN(c3ccccn3)C2)C1
5. CN(C)CCCN1CC(C(=O)O)CC1=O (stereo unspecified)

Response line:
1: inactive; 2: inactive; 3: 7.94 µM (active); 4: inactive; 5: inactive

* * *

ASSAYED SYSTEM: Cytochrome P450 2C9 (Homo sapiens)
PROTOCOL SUMMARY: Cytochrome panel assay with activity outcomes
CONDITION NOTES: recombinant CYP, pro-luciferin dealkylation, luminescence, p450-cyp2c9; series mostly up to 57.1 µM
About 4,000 (25%) of roughly 16,000 compounds were called active. About 26% were inconclusive and are not listed. Calls follow the shape of the dose curve; as a rule, active = well fitted curve in the direction sought with a large enough effect; inconclusive = small, poorly fitted or top-dose-only effect, or effect the other way; inactive = no such curve, though single readings can be large or run the other way. The list is a sample of the results.
# valid calls are active, inactive; nothing else

Solved cases below.
| MOLECULE | ANSWER LABEL |
| --- | --- |
| COCCCN1C(=O)C(=O)/C(=C(/O)c2ccc(OC)cc2C)C1c1cccnc1 (stereo not drawn) | inactive |
| CCOc1ccc(NC(=O)N(C2CCCCC2)C(C)c2ccncc2)cc1 (stereo not drawn) | active |
| CCC/C=C(\CCC)C(NC(=O)c1cccs1)c1ccc(C(=O)OC)cc1 (stereo not drawn) | active |

Prompt line: // param item: CCCCN(C(=O)Nc1ccc(OCC)cc1)C1CCN(C(C)=O)CC1 ; yields the recorded call
Response line: inactive

Prompt line: // param item: C=CCNc1oc(/C=C/c2ccccc2)nc1C#N ; yields the recorded call
Response line: active

Prompt line: // param item: CN1[C@@H]2CC[C@H]1CC(OC(=O)c1c[nH]c3ccccc13)C2 (stereo partly drawn) ; yields the recorded call
Response line: inactive

Prompt line: // param item: COc1ccc(NC(=O)C(c2ccc(OC)cc2)N(C)C(=O)CNC(C)=O)cc1 (stereo not drawn) ; yields the recorded call
Response line: inactive

Prompt line: // param item: CN1C2C=C(N(CCc3c[nH]c4ccccc34)C(=O)c3ccc(Cl)cc3)CC1CC2 (stereo not drawn) ; yields the recorded call
Response line: active

Prompt line: // param item: Nc1nc(Nc2ccccc2)nc2c1ncn2[C@@H]1O[C@@H](CO)[C@H](O)[C@@H]1O ; yields the recorded call
Response line: inactive

Prompt line: // param item: Fc1ccc2c(c1)C(c1ccncc1)=NNC(c1ccc(Cl)cc1)=N2 ; yields the recorded call
Response line: active
